Assay overview: Pharmacokinetic evaluation in humans
Format: in vivo
Cond: human, plasma, 20 mg, noncompartmental, read-out: Cmax, Minimum, maximum
Measured endpoint: Cmax

Note to self: Cmax recorded for C[C@H](NC(=O)[C@H](CCC(=O)O)NC(=O)CCCC[C@@H]1CCSS1)C(=O)O [RLip-EA-OH, N-(R)-lipoyl-L-glutamyl-L- alanine] was 1220 to 2420 ng/mL

----------
Assay overview: Pharmacokinetic evaluation in humans
Assay type: in vivo
Cond: human, plasma, 60 mg, noncompartmental, read-out: t1/2, Median (converted)
Measured endpoint: half-life (h)
Express the result in h but write the number alone.

Note to self: half-life recorded for C[C@H](NC(=O)[C@H](CCC(=O)O)NC(=O)CCCC[C@@H]1CCSS1)C(=O)O [RLip-EA-OH, N-(R)-lipoyl-L-glutamyl-L- alanine] was 1.26

----------
Assay overview: Pharmacokinetic evaluation in humans
Type: in vivo
Cond: human, plasma, 60 mg, compartmental, read-out: CL, Minimum, maximum
Experimental: Plasma and urine RLip-EA-OH concentrations were measured at BASi, Inc. (West Lafayette, Ind.) using a LC/MS/MS method with positive turbo ion spray, in the multiple reaction-monitoring mode. The quantifiable range for human plasma was 1.00 to 500 ng/mL and QC samples were included at 3.00, 75.0 and 375 ng/mL. The PK population included subjects who received RLip-EA-OH and had ≧1 post-dose PK measurement. […]
Measured endpoint: clearance

Note to self: clearance recorded for C[C@H](NC(=O)[C@H](CCC(=O)O)NC(=O)CCCC[C@@H]1CCSS1)C(=O)O [RLip-EA-OH, N-(R)-lipoyl-L-glutamyl-L- alanine] was 317 to 565 mL/min

----------
Assay overview: Pharmacokinetic evaluation in humans
Assay type: in vivo
Cond: human, plasma, 20 mg, compartmental, read-out: t1/2, Mean (SD) (converted)
Measured endpoint: half-life

Note to self: half-life recorded for C[C@H](NC(=O)[C@H](CCC(=O)O)NC(=O)CCCC[C@@H]1CCSS1)C(=O)O [RLip-EA-OH, N-(R)-lipoyl-L-glutamyl-L- alanine] was 1 h

----------
Assay overview: Pharmacokinetic evaluation in humans
Type: in vivo
Cond: human, plasma, 20 mg, compartmental, read-out: CL, Median (converted)
Measured endpoint: clearance (mL/min)
Express the result in mL/min but write the number alone.

Note to self: clearance recorded for C[C@H](NC(=O)[C@H](CCC(=O)O)NC(=O)CCCC[C@@H]1CCSS1)C(=O)O [RLip-EA-OH, N-(R)-lipoyl-L-glutamyl-L- alanine] was 545

----------
Assay overview: Pharmacokinetic evaluation in humans
Format: in vivo
Cond: human, plasma, 60 mg, noncompartmental, read-out: Cmax, Minimum, maximum
Measured endpoint: Cmax

Note to self: Cmax recorded for C[C@H](NC(=O)[C@H](CCC(=O)O)NC(=O)CCCC[C@@H]1CCSS1)C(=O)O [RLip-EA-OH, N-(R)-lipoyl-L-glutamyl-L- alanine] was 5190 to 7990 ng/mL

----------
Assay overview: Pharmacokinetic evaluation in humans
Assay type: in vivo
Cond: human, plasma, 150 mg, noncompartmental, read-out: AUCinf, Median
Measured endpoint: AUC(0-inf) (ng·h/mL)
Express the result in ng·h/mL but write the number alone.

Note to self: AUC(0-inf) recorded for C[C@H](NC(=O)[C@H](CCC(=O)O)NC(=O)CCCC[C@@H]1CCSS1)C(=O)O [RLip-EA-OH, N-(R)-lipoyl-L-glutamyl-L- alanine] was 6920
